target: EGFR del746-750 T790M (Homo sapiens, UniProt P00533, DEL746-750/T790M); experiment: EGFR del746-750 T790M biochemical assay (Caliper mobility shift); conditions: 5 μM ATP; apparent Ki (Morrison fit) converted by Cheng-Prusoff, Km of ATP 2.1 μM; read-out: EGFR(T790M/d746-750) Ki
Sequence (P00533 with tags, fused parts or gaps DEL746-750/T790M limits assumed): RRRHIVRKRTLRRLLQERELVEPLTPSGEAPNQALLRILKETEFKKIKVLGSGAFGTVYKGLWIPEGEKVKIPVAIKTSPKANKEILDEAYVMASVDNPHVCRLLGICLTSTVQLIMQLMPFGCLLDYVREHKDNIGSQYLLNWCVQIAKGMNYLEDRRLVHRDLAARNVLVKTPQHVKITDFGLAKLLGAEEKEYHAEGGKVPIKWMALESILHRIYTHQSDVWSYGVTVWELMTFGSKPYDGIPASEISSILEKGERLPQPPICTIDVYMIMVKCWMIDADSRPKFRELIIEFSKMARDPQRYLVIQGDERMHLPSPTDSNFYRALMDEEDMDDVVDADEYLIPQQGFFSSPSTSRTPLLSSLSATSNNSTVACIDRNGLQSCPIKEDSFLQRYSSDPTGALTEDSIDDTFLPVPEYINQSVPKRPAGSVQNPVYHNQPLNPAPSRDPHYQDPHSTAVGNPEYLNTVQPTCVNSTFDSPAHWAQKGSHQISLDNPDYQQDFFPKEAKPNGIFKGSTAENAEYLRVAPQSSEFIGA
readout label: Ki (nM)

CCC(C)n1nc(N2CC[C@@H](C(N)=O)C2)c2cnc(Nc3ccnc(N4CCC(C)(O)CC4)n3)cc21 (stereo partly shown) [Example 145] :: 1.6
CC(C)n1nc(N2CCC(C(N)=O)C2)c2cnc(Nc3ccnc(-c4cnn(S(=O)(=O)C5CC5)c4)n3)cc21 (stereo not shown) [Example 60] :: 0.5
CCC(C)n1nc(N2CCCC2=O)c2cnc(Nc3ccnc(N4CC[C@@H](O)[C@@H](F)C4)n3)cc21 (stereo partly shown) [Example 200] :: 2.6
CNC(=O)C1CN(c2nn(C(C)C)c3cc(Nc4ccnc(-c5cnn(S(=O)(=O)C6CC6)c5)n4)ncc23)C1 [Example 161] :: 0.6
CC(C)n1nc(N2CC(C(=O)N3CCOCC3)C2)c2cnc(Nc3ccnc(-c4cnn(S(=O)(=O)C5CC5)c4)n3)cc21 [Example 163] :: 0.9
CC1CN(c2nn(C(C)C)c3cc(Nc4ccnc(-c5cnn(S(=O)(=O)C6CC6)c5)n4)ncc23)C(=O)N1 (stereo not shown) [Example 108] :: 1.7
CC(C)n1nc(N2CC(O)C(F)(F)C2)c2cnc(Nc3ccnc(N4CCC(C)(O)CC4)n3)cc21 (stereo not shown) [Example 85] :: 15.5

Data credit: patent US9951064B2
